Where these numbers come from: paper PMC3961306

Target: panel of more than 300 wild-type and mutant kinases (313 kinase panel) (Homo sapiens, UniProt P53355)
Test: Kinase profiling in a biochemical assay panel (mobility shift assays and ELISA), %-inhibition at 1 μM; selectivity entropy
Settings: kinase DAPK1; compound at 1 μM
Reported %-inhibition of DAPK1 is given for each of the following compounds.
Form field: result (number plus unit)

[ask] Please report %-inhibition of DAPK1 for the following compound: COc1cc2nccc(Oc3ccc(NC(=O)C4(C(=O)Nc5ccc(F)cc5)CC4)cc3)c2cc1OC [cabozantinib]
[reply] -10%

[ask] Please report %-inhibition of DAPK1 for the following compound: Cc1ccc(Nc2nccc(N(C)c3ccc4c(C)n(C)nc4c3)n2)cc1S(N)(=O)=O
[reply] 0.316%

[ask] Please report %-inhibition of DAPK1 for the following compound: CO[C@H]1C[C@@H]2CC[C@@H](C)[C@@](O)(O2)C(=O)C(=O)N2CCCC[C@H]2C(=O)O[C@H]([C@H](C)C[C@@H]2CC[C@@H](OCCO)[C@H](OC)C2)CC(=O)[C@H](C)/C=C(\C)[C@@H](O)[C@@H](OC)C(=O)[C@H](C)C[C@H](C)/C=C/C=C/C=C/1C
[reply] -15%

[ask] Please report %-inhibition of DAPK1 for the following compound: CNC(=O)c1cc(Oc2ccc(NC(=O)Nc3ccc(Cl)c(C(F)(F)F)c3)c(F)c2)ccn1
[reply] -11%

[ask] Please report %-inhibition of DAPK1 for the following compound: CC(C)(C)c1nc(-c2cccc(NS(=O)(=O)c3c(F)cccc3F)c2F)c(-c2ccnc(N)n2)s1
[reply] -0.54%

[ask] Please report %-inhibition of DAPK1 for the following compound: CC(=O)Nc1cccc(-n2c(=O)n(C3CC3)c(=O)c3c(Nc4ccc(I)cc4F)n(C)c(=O)c(C)c32)c1
[reply] -6%

###

Reported %-inhibition of PKCγ is given for each of the following molecules.
Biological target: panel of more than 300 wild-type and mutant kinases (313 kinase panel) (Homo sapiens, UniProt P05129)
Experiment: Kinase profiling in a biochemical assay panel (mobility shift assays and ELISA), %-inhibition at 1 μM; selectivity entropy
Conditions: kinase PKCγ; 1 μM
Form field: result (number plus unit)

CO[C@H]1C[C@@H]2CC[C@@H](C)[C@@](O)(O2)C(=O)C(=O)N2CCCC[C@H]2C(=O)O[C@H]([C@H](C)C[C@@H]2CC[C@@H](OC(=O)C(C)(CO)CO)[C@H](OC)C2)CC(=O)[C@H](C)/C=C(\C)[C@@H](O)[C@@H](OC)C(=O)[C@H](C)C[C@H](C)/C=C/C=C/C=C/1C [temsirolimus]
-11%
Cc1cn(-c2cc(NC(=O)c3ccc(C)c(Nc4nccc(-c5cccnc5)n4)c3)cc(C(F)(F)F)c2)cn1 [nilotinib]
-1.31%
O=S(=O)(c1cccc2cnccc12)N1CCCNCC1 [fasudil]
10%

[ask] Please report %-inhibition of PKCγ for the following molecule: COc1cc2c(Nc3ccc(Br)cc3F)ncnc2cc1OCC1CCN(C)CC1 [vandetanib]
[reply] -5%

[ask] Please report %-inhibition of PKCγ for the following molecule: N#CC[C@H](C1CCCC1)n1cc(-c2ncnc3[nH]ccc23)cn1 [ruxolitinib]
[reply] 6%

[ask] Please report %-inhibition of PKCγ for the following molecule: COc1cc2nccc(Oc3ccc(NC(=O)C4(C(=O)Nc5ccc(F)cc5)CC4)cc3)c2cc1OC [cabozantinib]
[reply] -4%

[ask] Please report %-inhibition of PKCγ for the following molecule: Cc1ccc(C(=O)Nc2ccc(CN3CCN(C)CC3)c(C(F)(F)F)c2)cc1C#Cc1cnc2cccnn12 [ponatinib]
[reply] -3%

###

Target: panel of more than 300 wild-type and mutant kinases (313 kinase panel) (Homo sapiens)
Assay: Kinase profiling in a biochemical assay panel (mobility shift assays and ELISA), %-inhibition at 1 μM; selectivity entropy
Details: kinase MET; compound at 1 μM
Reported %-inhibition of MET is given for each of the following compounds.
Form field: result (number plus unit)

CS(=O)(=O)CCNCc1ccc(-c2ccc3ncnc(Nc4ccc(OCc5cccc(F)c5)c(Cl)c4)c3c2)o1 [lapatinib]
0%
CC(C)(C)c1nc(-c2cccc(NS(=O)(=O)c3c(F)cccc3F)c2F)c(-c2ccnc(N)n2)s1 [dabrafenib]
27%
COc1cc(Nc2c(C#N)cnc3cc(OCCCN4CCN(C)CC4)c(OC)cc23)c(Cl)cc1Cl [bosutinib]
10%
Cc1cn(-c2cc(NC(=O)c3ccc(C)c(Nc4nccc(-c5cccnc5)n4)c3)cc(C(F)(F)F)c2)cn1 [nilotinib]
-9%

[ask] State measured %-inhibition of MET of the compound Cc1ccc(C(=O)Nc2ccc(CN3CCN(C)CC3)c(C(F)(F)F)c2)cc1C#Cc1cnc2cccnn12 [ponatinib] with panel of more than 300 wild-type and mutant kinases (313 kinase panel) (Homo sapiens).
[reply] 17%

[ask] State measured %-inhibition of MET of the compound CCCS(=O)(=O)Nc1ccc(F)c(C(=O)c2c[nH]c3ncc(-c4ccc(Cl)cc4)cc23)c1F [vemurafenib] with panel of more than 300 wild-type and mutant kinases (313 kinase panel) (Homo sapiens).
[reply] 3.67%

[ask] State measured %-inhibition of MET of the compound CO[C@H]1C[C@@H]2CC[C@@H](C)[C@@](O)(O2)C(=O)C(=O)N2CCCC[C@H]2C(=O)O[C@H]([C@H](C)C[C@@H]2CC[C@@H](OC(=O)C(C)(CO)CO)[C@H](OC)C2)CC(=O)[C@H](C)/C=C(\C)[C@@H](O)[C@@H](OC)C(=O)[C@H](C)C[C@H](C)/C=C/C=C/C=C/1C [temsirolimus] with panel of more than 300 wild-type and mutant kinases (313 kinase panel) (Homo sapiens).
[reply] -4.57%

[ask] State measured %-inhibition of MET of the compound O=S(=O)(c1cccc2cnccc12)N1CCCNCC1 [fasudil] with panel of more than 300 wild-type and mutant kinases (313 kinase panel) (Homo sapiens).
[reply] -4%

[ask] State measured %-inhibition of MET of the compound CNC(=O)c1cc(Oc2ccc(NC(=O)Nc3ccc(Cl)c(C(F)(F)F)c3)c(F)c2)ccn1 [regorafenib] with panel of more than 300 wild-type and mutant kinases (313 kinase panel) (Homo sapiens).
[reply] 2.12%

[ask] State measured %-inhibition of MET of the compound CC(=O)Nc1cccc(-n2c(=O)n(C3CC3)c(=O)c3c(Nc4ccc(I)cc4F)n(C)c(=O)c(C)c32)c1 [trametinib] with panel of more than 300 wild-type and mutant kinases (313 kinase panel) (Homo sapiens).
[reply] -2.41%

[ask] State measured %-inhibition of MET of the compound CO[C@H]1C[C@@H]2CC[C@@H](C)[C@@](O)(O2)C(=O)C(=O)N2CCCC[C@H]2C(=O)O[C@H]([C@H](C)C[C@@H]2CC[C@@H](OCCO)[C@H](OC)C2)CC(=O)[C@H](C)/C=C(\C)[C@@H](O)[C@@H](OC)C(=O)[C@H](C)C[C@H](C)/C=C/C=C/C=C/1C [everolimus] with panel of more than 300 wild-type and mutant kinases (313 kinase panel) (Homo sapiens).
[reply] -4%

###

System: forty-four human cancer cell lines
Experiment: Cell proliferation assay (ATPlite, 72 hours) in the 44 cell line Oncolines panel
Type: cell-based
Details: Homo sapiens, A-427, read-out: cell panel IC50, A-427
pIC50: −log10 of the molar value.
Lab note: anything with pIC50 at or over 6 counts as True; the rest go in False.

Use these answered entries as a reference point.
Cc1nc(Nc2ncc(C(=O)Nc3c(C)cccc3Cl)s2)cc(N2CCN(CCO)CC2)n1
False
Cc1ccc(Nc2nccc(N(C)c3ccc4c(C)n(C)nc4c3)n2)cc1S(N)(=O)=O
False
COc1cc2nccc(Oc3ccc(NC(=O)C4(C(=O)Nc5ccc(F)cc5)CC4)cc3)c2cc1OC [cabozantinib]
False
Cc1ccc(C(=O)Nc2ccc(CN3CCN(C)CC3)c(C(F)(F)F)c2)cc1C#Cc1cnc2cccnn12
True

[ask] Hi team, for CNC(=O)c1cc(Oc2ccc(NC(=O)Nc3ccc(Cl)c(C(F)(F)F)c3)cc2)ccn1 , is the recorded pIC50 at or above 6?
[reply] False

###

Target: panel of more than 300 wild-type and mutant kinases (313 kinase panel) (Homo sapiens)
Test: Kinase profiling in a biochemical assay panel (mobility shift assays and ELISA), %-inhibition at 1 μM; selectivity entropy
Details: kinase CDC7/ASK; 1 μM compound
METRIC_NAME: %-inhibition, CDC7/ASK (%)
Give a bare numeral; the unit % is implied.

Look over these answered cases.
CO[C@H]1C[C@@H]2CC[C@@H](C)[C@@](O)(O2)C(=O)C(=O)N2CCCC[C@H]2C(=O)O[C@H]([C@H](C)C[C@@H]2CC[C@@H](OCCO)[C@H](OC)C2)CC(=O)[C@H](C)/C=C(\C)[C@@H](O)[C@@H](OC)C(=O)[C@H](C)C[C@H](C)/C=C/C=C/C=C/1C
-6
Cc1ccc(C(=O)Nc2ccc(CN3CCN(C)CC3)c(C(F)(F)F)c2)cc1C#Cc1cnc2cccnn12
-7.45

In the following, a different compound is considered.
[ask] Please report %-inhibition, CDC7/ASK for the following compound: Cc1nc(Nc2ncc(C(=O)Nc3c(C)cccc3Cl)s2)cc(N2CCN(CCO)CC2)n1
[reply] 3
